// reported logP for each item listed
# METHOD SUMMARY: log P by HPLC on a reversed-phase column (C 18), EEC Directive 79/831 Annex V.A8
# Type: physicochemical
# MEASUREMENT CONDITIONS: HPLC, reversed-phase column (C 18), 40° C.; 0.1% aqueous formic acid and acetonitrile, linear gradient 10% to 90% acetonitrile

| SMILES CODE | logP |
| --- | --- |
| Cn1cc(C(=O)N(Cc2ccccc2C2(C(F)F)CC2)C2CC2)c(C(F)F)n1 | 3.00 |

Task item: Recorded logP of CCCC1(c2cc(Cl)ccc2CN(C(=O)c2cc(C)oc2C(F)F)C2CC2)CC1 , please.
Reply: 5.78

Task item: Recorded logP of CCC1(c2cc(C)c(F)cc2CN(C(=O)c2nn(C)nc2C(F)F)C2CC2)CC1 , please.
Reply: 4.85

Task item: Recorded logP of Cn1cc(C(=O)N(Cc2cc(F)c(F)cc2C2(C)CC2)C2CC2)c(C(F)F)n1 , please.
Reply: 3.68

Task item: Recorded logP of CCC1(c2cc(Cl)ccc2CN(C(=O)c2cn(C)nc2C(F)F)C2CC2)CC1 , please.
Reply: 4.25

Task item: Recorded logP of Cc1c(C(=O)N(Cc2cc(Cl)ccc2C2(C)CC2)C2CC2)c(C(F)F)nn1C , please.
Reply: 4.06

Task item: Recorded logP of CCC1(c2ccc(Cl)cc2CN(C(=O)c2c(OC(F)F)nn(C)c2Cl)C2CC2)CC1 , please.
Reply: 5.03

Task item: Recorded logP of Cc1nn(C)c(F)c1C(=O)N(Cc1ccc(F)cc1C1(C)CC1)C1CC1 , please.
Reply: 3.46

FYI, the data here is from patent US10071967B2.
